Source listed as patent US20240415819A1.

System: hPMBC
assay: Chymotrypsin-like ProteasomeGlo assay in hPBMC
Assay type: cell-based
run_parameters: Homo sapiens; read-out: Pglo hPBMC
pIC50: −log10 of the molar value.
reported_endpoint: pIC50

Guide cases for pIC50, answers given:
CC(=O)N[C@H]1CC(=O)N2CCC2(C)COc2ccc(C)c(c2)CNC(=O)[C@H](CCc2ccccc2)NC1=O (stereo partly drawn)
< 5.30
CC(=O)N[C@H]1CC(=O)N2CCCC(CCOc3ccc(C)c(c3)CNC(=O)C(c3cnn(CCC(=O)O)c3)NC1=O)C2 (stereo partly drawn)
> 7.00
CC(=O)N[C@H]1CC(=O)N(C)CCCOc2ccc(C)c(c2)CNC(=O)[C@H](CCc2ccccc2)NC1=O
< 5.30
CC(=O)N[C@H]1CC(=O)N2CCCC(CCOc3ccc(C)c(c3)CNC(=O)C(c3cnn(CCCS(=O)(=O)O)c3)NC1=O)C2 (stereo partly drawn)
> 7.00
Cc1ccc2cc1CNC(=O)[C@H](CCc1ccccc1)NC(=O)[C@@H](NC(=O)OCc1ccccc1)CCC(=O)N1CCC(CCO2)C1 (stereo partly drawn)
> 7.00

Request: Look up pIC50: CC(=O)N[C@H]1CC(=O)N2CCCC(CCOc3ccc(C)c(c3)CNC(=O)C(CCC3CCN(C(C)=O)CC3)NC1=O)C2 (stereo partly drawn)
Result: > 7.00
